tested on: Staphylococcus aureus; experiment: Antibacterial activity against Staphylococcus aureus ATCC 13709 in cation adjusted Mueller-Hinton broth by […] assay in presence of 50% rat serum; format: functional
PROPERTY_NAME: MIC (µg/mL)
Report the figure in µg/mL without appending any unit label.

Q) Give its MIC value. Item: CN[C@H](CC(C)C)C(=O)N[C@H]1C(=O)N[C@@H](CC(N)=O)C(=O)N[C@H]2C(=O)N[C@H]3C(=O)N[C@H](C(=O)N[C@H](C(=O)OCC(=O)Nc4ccc(CC(P(=O)(O)O)P(=O)(O)O)cc4)c4cc(O)cc(O)c4-c4cc3ccc4O)[C@H](O)c3cc(Cl)c(c(Cl)c3)Oc3cc2cc(c3O[C@H]2O[C@@H](CO)[C@@H](O)[C@H](O)[C@H]2O[C@@H]2C[C@@](C)(N)[C@@H](O)[C@@H](C)O2)Oc2ccc(cc2Cl)[C@H]1O
A) 32
